Some variants, each annotated with its measured abundance fitness.
B1: Protein S100-G, residues 1 to 79; numbered along this chain, P02633 (parent)
chain: MSAKKSPEELKGIFEKYAAKEGDPNQLSKEELKLLLQTEFPSLLKGPSTLDELFEELDKNGDGEVSFEEFQVLVKKISQ

# Variants of: B1
# assay: abundance fitness (aPCA) (normalised: wild type 0, dead -1); higher = more abundant; growth selection in yeast, the domain comes from the species named
# study_conditions: Bos taurus
// response body must contain only the number

Worked cases, answers included:
Fill in: abundance fitness of L73C is ___
0.065

Here is the next variant: E68M
-0.044

Here is the next variant: K16R
-0.082

New cases:
Fill in: abundance fitness of E56Y is ___
-0.06

Here is the next variant: L53R
-0.031

Here is the next variant: G12R
0.046

Here is the next variant: K59R
-0.003

Here is the next variant: L36Y
-0.209

Here is the next variant: E64D
0.049

Here is the next variant: L50D
-0.068
